# TEST TARGET: hGIP-R (Homo sapiens, UniProt P48546)
# Construct: expressed in transfected cells; host or cells: HEK-293 clonal cell lines
# Sequence (P48546 22-466): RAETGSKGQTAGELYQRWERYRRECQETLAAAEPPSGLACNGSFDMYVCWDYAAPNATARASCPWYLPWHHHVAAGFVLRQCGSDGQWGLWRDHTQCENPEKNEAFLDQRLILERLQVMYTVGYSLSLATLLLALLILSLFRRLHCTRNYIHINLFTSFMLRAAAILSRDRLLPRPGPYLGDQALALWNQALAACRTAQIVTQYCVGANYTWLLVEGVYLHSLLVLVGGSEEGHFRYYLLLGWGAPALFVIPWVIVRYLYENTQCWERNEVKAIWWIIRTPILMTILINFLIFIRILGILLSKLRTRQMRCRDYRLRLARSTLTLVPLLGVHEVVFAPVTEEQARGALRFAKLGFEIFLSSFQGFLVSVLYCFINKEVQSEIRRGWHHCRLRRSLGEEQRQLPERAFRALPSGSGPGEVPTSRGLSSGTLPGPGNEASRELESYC
# ASSAY SUMMARY: Functional hGIP-R Assay (cAMP formation, HTRF)
# Type: cell-based
# EXPERIMENTAL CONTEXT: cAMP potency; HEK-293 cells expressing hGIP-R; incubated at 37° C. in the presence of 0.1% bovine casein; geometric mean; read-out: Human GIP-R EC50, nM (SEM, n)
EC50 reference
Just the number please, in nM, no unit attached.

Here is how some compounds turned out for EC50.
# COMPOUND, EC50, nM
rows = [
    ("Cn1cc(C[C@@H](NC(=O)[C@H]2C[C@@H]2c2ccc(-c3cnc4nccn4c3)cc2)C(=O)NC(C)(C)Cn2nc(C(F)(F)F)cc2-c2cn[nH]n2)cn1", 61.6),
    ("CN1CCC(n2cc(C(F)(F)F)nc2CC(C)(C)NC(=O)[C@@H](Cc2cnn(C(F)F)c2)N2CC[C@@]3(C[C@@H]3c3ccc(-c4cnc5nc(C6CC6)cn5c4)cc3Cl)C2=O)C1=O (single isomer, unassigned)", 0.234),
    ("COc1cc2cc(-c3ccc([C@H]4C[C@@]45CCN([C@H](Cc4cnn(C(F)F)c4)C(=O)NC(C)(C)Cn4nc(C(F)(F)F)cc4-c4ccc(=O)n(C)c4)C5=O)cc3)cnc2nc1C (single isomer, unassigned; isomer 1)", 49.8),
    ("COc1ncc(-c2ccc([C@H]3C[C@@]34CCN([C@H](Cc3cnn(C(F)F)c3)C(=O)NC(C)(C)Cn3nc(C(F)(F)F)cc3-c3ccn(C5CC5)c(=O)c3)C4=O)c(C)n2)cn1", 24.6),
]

Let us examine a further case.
# lookup: EC50 of `COc1ccc(-c2ccc([C@H]3C[C@@]34CCN([C@H](Cc3cnn(C(F)F)c3)C(=O)NC(C)(C)Cn3nc(C(F)(F)F)cc3-c3ccn(C5CC5)c(=O)c3)C4=O)c(C)n2)cn1`
3.16
